src = the supplement of paper PMC12042874

# PROTOCOL_DETAILS: amyloid nucleation score (Sup35N fusion, yeast selection) (log enrichment); library NNK1; higher = more nucleation; inactive = no reads after selection;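 further: zero at mode of non-aggregating sequences after 7 days selection at 30°C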
Reported values of amyloid nucleation score for individual entries
In your answer, state the number alone without any accompanying words.

Answered cases to consult:
FLQSIEGRSETGRMSRAISV = 1.08
YFTRFGHSELRSFMLVGTDM = -0.007
LRIPFTSWRYDNEMAVTGSG = 0.394
YYGFWICFNYVGTGVKISCA = 3.38
YRTVSDTVAY = 1.42
LSGWHSNLAGRPFPNEMDDG = 0.284
GPLSKGIFDRFMDPHRYFKY = -0.024
TRLLRVGRSNFSLNEHSDRI = -0.376

Attention now shifts to the item below.
State the recorded amyloid nucleation score for this entry: AWKKFSWDRLSKP
5.16
